Please respond with reported CAT for every item in the list.
# Method: Liver oxidative stress markers after treatment of MNU-induced rats
# Format: in vivo, Wistar rats
# Settings: catalase activity, liver, dose 50 mg/kg
One number for each entry.

The following compounds have reported results that may help.
INSERT INTO measurements (compound, measured_attribute, readout_value) VALUES
  ('CC(=O)c1cc(C(=O)O[C@@H]2/C=C/C(=O)O[C@@H](O)CCC/C=C/[C@@H]3C[C@H](O)C[C@H]32)ccc1OCCN1CCCC(O)C1=O (stereo partly drawn)', 'CAT', 19.46),
  ('CC/C(=C(\c1ccc(O)cc1)c1ccc(OCCN(C)C)cc1)c1ccccc1 [Compound 4-OHT., 4-hydroxytamoxifen, reference compound]', 'CAT', 20.46);

Field: next compound
Input line: Data request, read-out CAT, for CN(N=O)C(N)=O [MNU, Methyl nitrosourea, reference compound]
Output line: 3.08

* * *

# Method: Liver oxidative stress markers after treatment of MNU-induced rats
# Type: in vivo, Wistar rats
# Settings: liver, dose 50 mg/kg
Measured Attribute: TBARS
Enter the number, and then the unit.

Worked examples follow.
INSERT INTO results (molecule, readout_value) VALUES
  ('CC(=O)c1cc(C(=O)OC2/C=C/C(=O)O[C@@H](O)CCC/C=C/[C@@H]3C[C@H](O)C[C@@H]23)ccc1OCCN1CCC=C(C(=O)O)C1 (stereo partly drawn) [Compound 3DPQ-3]', '0.56 ± 0.32 nmol/mg'),
  ('CC(=O)c1cc(C(=O)O[C@@H]2/C=C/C(=O)O[C@@H](O)CCC/C=C/[C@@H]3C[C@H](O)C[C@H]32)ccc1OCCS(=O)(=O)O [Compound 3DPQ-4]', '0.65 ± 0.34 nmol/mg');

Please turn your attention to the following entry.
Input line: For the molecule CC(=O)c1cc(C(=O)O[C@@H]2/C=C/C(=O)O[C@@H](O)CCC/C=C/[C@@H]3C[C@H](O)C[C@H]32)ccc1OCCN1CC(C(=O)O)=CCC1=O [Compound 3DPQ-9] , what TBARS is on record?
Output line: 0.96 ± 0.24 nmol/mg

* * *

Answer each item with its documented IC50.
# Measured On: ERβ (Homo sapiens)
# Sequence (Q92731 whole entry): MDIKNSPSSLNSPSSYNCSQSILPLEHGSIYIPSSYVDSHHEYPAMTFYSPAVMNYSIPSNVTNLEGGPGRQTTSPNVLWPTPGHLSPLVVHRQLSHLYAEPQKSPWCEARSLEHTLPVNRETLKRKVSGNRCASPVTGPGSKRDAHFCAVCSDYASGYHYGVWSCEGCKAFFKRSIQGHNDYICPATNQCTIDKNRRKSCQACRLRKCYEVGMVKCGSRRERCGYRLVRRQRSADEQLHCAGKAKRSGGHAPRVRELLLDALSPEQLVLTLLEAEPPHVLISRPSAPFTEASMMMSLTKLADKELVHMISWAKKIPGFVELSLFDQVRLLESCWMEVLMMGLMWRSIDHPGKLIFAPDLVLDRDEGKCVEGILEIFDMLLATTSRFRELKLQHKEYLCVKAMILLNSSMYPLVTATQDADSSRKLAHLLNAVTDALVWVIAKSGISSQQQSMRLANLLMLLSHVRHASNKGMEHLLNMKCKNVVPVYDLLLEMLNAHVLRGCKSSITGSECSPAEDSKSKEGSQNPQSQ
# Method: Fluorescence polarization competition assay: antagonistic potency and relative binding affinity
# Settings: concentration that antagonizes 50% of ERβ signaling activity; read-out: ERβ (IC50 nM)
Numbers only, in nM.

For the 6 molecules below, give their IC50 values.
1. CC(=O)c1cc(C(=O)O[C@@H]2/C=C/C(=O)O[C@@H](O)CCC/C=C/[C@@H]3C[C@H](O)C[C@H]32)ccc1OCCN1C=Cc2ccccc2C1 [Compound 3DPQ-7]
2. CC(=O)c1cc(C(=O)O[C@@H]2/C=C/C(=O)O[C@@H](O)CCC/C=C/[C@@H]3C[C@H](O)C[C@H]32)ccc1OCCS(=O)(=O)O [Compound 3DPQ-4]
3. CC(=O)c1cc(C(=O)OC2C=CC(=O)OC(O)CCCC=CC3CC(O)CC32)ccc1OCCN1C(=O)CCC1=O (stereo not drawn) [Compound 3DPQ-5]
4. CC(=O)c1cc(C(=O)OC2/C=C/C(=O)O[C@@H](O)CCC/C=C/[C@@H]3C[C@H](O)C[C@@H]23)ccc1OCCN1CCC=C(C(=O)O)C1 (stereo partly drawn) [Compound 3DPQ-3]
5. CC(=O)c1cc(C(=O)O[C@@H]2/C=C/C(=O)O[C@@H](O)CCC/C=C/[C@@H]3C[C@H](O)C[C@H]32)ccc1OCCN1CCCC(O)C1=O (stereo partly drawn) [Compound 3DPQ-12]
6. CNCCOc1ccc(C(=O)O[C@@H]2/C=C/C(=O)O[C@@H](O)CCC/C=C/[C@@H]3C[C@H](O)C[C@H]32)cc1C(C)=O [Compound 3DPQ-1]

Output line:
[72.3, 82.5, 74.4, 74.9, 89.4, 74.3]
